From: patent US20020198219A1

tested on: differentiated P19 neurons; test: Drug screening using differentiated P19 cell assay (neuroprotection against glutamate/glycine); assay type: cell-based, murine; settings: screened at 1 micromolar; percentage of control cells surviving after 24 hours
Consider the following compounds; for each one, report its % neuroprotection (cell survival relative to control).
Form entry: value (%) — number only.

Item: COc1ccccc1-c1ccc(Nc2ccc(N3CCOCC3)cc2)nc1 | % neuroprotection (cell survival relative to control): 100

Item: COc1cc(Nc2cccc(-c3cc(C(F)(F)F)cc(C(F)(F)F)c3)n2)cc(OC)c1OC | % neuroprotection (cell survival relative to control): 82

Item: Fc1ccc(-c2ccc(Nc3ccc(N4CCOCC4)cc3)nc2)cc1Cl | % neuroprotection (cell survival relative to control): 83

Item: c1ccc(Oc2ccc(Nc3cccc(-c4ccc5c(c4)OCO5)n3)cc2)cc1 | % neuroprotection (cell survival relative to control): 79

Item: CCn1c2ccccc2c2cc(Nc3cccc(-c4cccc(N)c4)n3)ccc21 | % neuroprotection (cell survival relative to control): 105

Item: CCn1c2ccccc2c2cc(Nc3ccc(-c4ccc(N5CCOCC5)cc4)cn3)ccc21 | % neuroprotection (cell survival relative to control): 82

Item: COc1ccc(Nc2cccc(-c3ccc(C)c(C)c3)n2)cc1 | % neuroprotection (cell survival relative to control): 84

Item: CCCCCOc1ccc(Nc2ccc(-c3ccc(N(C)C)cc3)cn2)cc1 | % neuroprotection (cell survival relative to control): 88

Item: COc1ccccc1-c1ccc(Nc2cc(OC)c(OC)c(OC)c2)nc1 | % neuroprotection (cell survival relative to control): 77

Item: COc1ccc(Nc2ccc(-c3ccc(C)c(C)c3)cn2)cc1 | % neuroprotection (cell survival relative to control): 80

Item: COc1cc(Nc2cccc(-c3ccc4c(c3)OCO4)n2)cc(OC)c1OC | % neuroprotection (cell survival relative to control): 97

Item: CCn1c2ccccc2c2cc(Nc3cccc(-c4cncc(OC)c4)n3)ccc21 | % neuroprotection (cell survival relative to control): 92

Item: COc1cc(Nc2cccc(-c3cc4ccccc4o3)n2)cc(OC)c1OC | % neuroprotection (cell survival relative to control): 91

Item: COc1cc(Nc2cccc(-c3cc(OC)c(OC)c(OC)c3)n2)cc(OC)c1OC | % neuroprotection (cell survival relative to control): 90

Item: COc1ccc(Nc2cccc(-c3ccccc3Oc3ccccc3)n2)cc1 | % neuroprotection (cell survival relative to control): 78

Item: COc1ccc(Nc2ccc(-c3ccccc3)cn2)cc1 | % neuroprotection (cell survival relative to control): 72

Item: COc1ccc(Nc2cccc(-c3ccc(OC)c(OC)c3)n2)cc1 | % neuroprotection (cell survival relative to control): 96

Item: COc1cc(Nc2cccc(-c3ccccc3Oc3ccccc3)n2)cc(OC)c1OC | % neuroprotection (cell survival relative to control): 90

Item: COc1cc(Nc2cccc(-c3ccccc3)n2)cc(OC)c1OC | % neuroprotection (cell survival relative to control): 84

* * *

test system: differentiated P19 neurons; test: Drug screening using differentiated P19 cell assay (neuroprotection against glutamate/glycine); assay type: cell-based, murine; details: screened at 1 micromolar; percentage of control cells surviving after 24 hours
Measured Endpoint: % neuroprotection (cell survival relative to control) (%)
Form entry: value (%) — number only.

Item: COc1cc(Nc2cccc(-c3ccc(-c4ccccc4)cc3)n2)cc(OC)c1OC | % neuroprotection (cell survival relative to control): 96

Item: CCCCCOc1ccc(Nc2ccc(-c3ccc4c(c3)OCO4)cn2)cc1 | % neuroprotection (cell survival relative to control): 98

Item: CCCCCOc1ccc(Nc2ccc(-c3cccnc3)cn2)cc1 | % neuroprotection (cell survival relative to control): 84

Item: CCCCCOc1ccc(Nc2ccc(-c3ccc(CCC(=O)O)cc3)cn2)cc1 | % neuroprotection (cell survival relative to control): 105

Item: COc1ccc(Nc2ccc(-c3ccccc3OC)cn2)cc1 | % neuroprotection (cell survival relative to control): 82

Item: CCn1c2ccccc2c2cc(Nc3cccc(-c4ccc5c(c4)OCO5)n3)ccc21 | % neuroprotection (cell survival relative to control): 72

Item: Oc1ccc(-c2ccc(Nc3ccc4c(c3)OCCO4)nc2)cc1 | % neuroprotection (cell survival relative to control): 93

Item: c1cc2c(cc1Nc1ccc(-c3ccc(N4CCOCC4)cc3)cn1)OCCO2 | % neuroprotection (cell survival relative to control): 80

Item: COc1ccc(Nc2ccc(-c3ccc(OC(F)(F)F)cc3)cn2)cc1 | % neuroprotection (cell survival relative to control): 94
